Source: ChEMBL document CHEMBL1126991

For each record, write down the corresponding IC50.
- system: Glutamate receptor ionotropic, kainate
Give the value, in units of µM, as a plain number.

Incoming: So what IC50 did "CN(C)S(=O)(=O)c1cc2c(N=O)c(O)[nH]c2c2c1CCCC2" get with Glutamate receptor ionotropic, kainate?
Outgoing: 27

Incoming: So what IC50 did "NS(=O)(=O)c1cc2c(N=O)c(O)[nH]c2c2c1CCCC2" get with Glutamate receptor ionotropic, kainate?
Outgoing: 24.5

Incoming: So what IC50 did "CNS(=O)(=O)c1cc2c(N=O)c(O)[nH]c2c2c1CCCC2" get with Glutamate receptor ionotropic, kainate?
Outgoing: 30
